Tested Target: UniProtKB Q95V25
Assay Method Text: In vitro assay 1: C. elegans Slo-1a, action at a recombinant C. elegans CHO cell line (membrane potential measurement)
Catalogue of EC50 values
Property: EC50 (nM)

INSERT INTO assay_data (compound, property, test_value) VALUES
  ('CC(C)c1c(C(=O)N[C@H]2CCOc3ccccc32)cnc2c(-c3c(F)cccc3F)c(C(F)(F)F)nn12', 'EC50', 126),
  ('CCC(C)c1c(C(=O)N[C@H]2CCOc3ccccc32)cnc2c(-c3c(F)cccc3Cl)c(C)nn12 (stereo partly drawn)', 'EC50', 20),
  ('Cc1nn2c(C(C)C)c(C(=O)N[C@H]3CCOc4ccccc43)cnc2c1-c1cccc(Cl)c1Cl', 'EC50', 2),
  ('COc1cccc(-c2c(C(F)F)nn3c(C(C)C)c(C(=O)N[C@H]4CCc5ccccc54)cnc23)c1', 'EC50', 25.1),
  ('Cc1nn2c(Cc3ccc(F)cc3)c(C(=O)N[C@H]3CCOc4ccccc43)cnc2c1-c1c(F)cccc1Cl', 'EC50', 3160),
  ('Cc1nn2c(C3CC3)c(C(=O)N[C@H]3CCOc4ccccc43)cnc2c1-c1cccc2c1CCN2C', 'EC50', 6.31),
  ('Cc1nn2c(N3CCOCC3)c(C(=O)N[C@H]3CCOc4ccccc43)cnc2c1-c1c(F)ccc(F)c1F', 'EC50', 2.51),
  ('Cc1nn2c(C3CC3)c(C(=O)N[C@H]3CCOc4ccccc43)cnc2c1-c1cccc(N(C)C)c1', 'EC50', 2.51),
  ('Cc1nn2c(C3CC3)c(C(=O)N[C@H]3CCc4ccccc43)cnc2c1-c1ccccc1F', 'EC50', 6.31),
  ('Cc1nn2c(C(C)C)c(C(=O)N[C@H]3CCOc4ccccc43)cnc2c1-c1c(F)ccc(F)c1F', 'EC50', 1.26),
  ('Cc1c(C(=O)N[C@H]2CCc3ccccc32)cnc2c(-c3ccccc3Cl)c(Cl)nn12', 'EC50', 39.8),
  ('Cc1nn2c(C(C)C)c(C(=O)N[C@H]3CCOc4ccccc43)cnc2c1-c1cccc(N(C)C)c1', 'EC50', 10),
  ('COc1cc(Cl)cc(-c2c(C)nn3c(C(C)C)c(C(=O)N[C@H]4CCCc5ccccc54)cnc23)c1', 'EC50', 50.1),
  ('Cc1nn2c(C(C)C)c(C(=O)N[C@H]3CCc4ccccc43)cnc2c1-c1cccc(C(F)F)c1', 'EC50', 31.6),
  ('Cc1nn2c(C3CC3)c(C(=O)N[C@H]3CCOc4ccccc43)cnc2c1-c1ccccc1Cl', 'EC50', 2.51);

###

Tested Target: C. elegans Slo-1a (Caenorhabditis elegans)
Sequence (Q95V25 whole entry): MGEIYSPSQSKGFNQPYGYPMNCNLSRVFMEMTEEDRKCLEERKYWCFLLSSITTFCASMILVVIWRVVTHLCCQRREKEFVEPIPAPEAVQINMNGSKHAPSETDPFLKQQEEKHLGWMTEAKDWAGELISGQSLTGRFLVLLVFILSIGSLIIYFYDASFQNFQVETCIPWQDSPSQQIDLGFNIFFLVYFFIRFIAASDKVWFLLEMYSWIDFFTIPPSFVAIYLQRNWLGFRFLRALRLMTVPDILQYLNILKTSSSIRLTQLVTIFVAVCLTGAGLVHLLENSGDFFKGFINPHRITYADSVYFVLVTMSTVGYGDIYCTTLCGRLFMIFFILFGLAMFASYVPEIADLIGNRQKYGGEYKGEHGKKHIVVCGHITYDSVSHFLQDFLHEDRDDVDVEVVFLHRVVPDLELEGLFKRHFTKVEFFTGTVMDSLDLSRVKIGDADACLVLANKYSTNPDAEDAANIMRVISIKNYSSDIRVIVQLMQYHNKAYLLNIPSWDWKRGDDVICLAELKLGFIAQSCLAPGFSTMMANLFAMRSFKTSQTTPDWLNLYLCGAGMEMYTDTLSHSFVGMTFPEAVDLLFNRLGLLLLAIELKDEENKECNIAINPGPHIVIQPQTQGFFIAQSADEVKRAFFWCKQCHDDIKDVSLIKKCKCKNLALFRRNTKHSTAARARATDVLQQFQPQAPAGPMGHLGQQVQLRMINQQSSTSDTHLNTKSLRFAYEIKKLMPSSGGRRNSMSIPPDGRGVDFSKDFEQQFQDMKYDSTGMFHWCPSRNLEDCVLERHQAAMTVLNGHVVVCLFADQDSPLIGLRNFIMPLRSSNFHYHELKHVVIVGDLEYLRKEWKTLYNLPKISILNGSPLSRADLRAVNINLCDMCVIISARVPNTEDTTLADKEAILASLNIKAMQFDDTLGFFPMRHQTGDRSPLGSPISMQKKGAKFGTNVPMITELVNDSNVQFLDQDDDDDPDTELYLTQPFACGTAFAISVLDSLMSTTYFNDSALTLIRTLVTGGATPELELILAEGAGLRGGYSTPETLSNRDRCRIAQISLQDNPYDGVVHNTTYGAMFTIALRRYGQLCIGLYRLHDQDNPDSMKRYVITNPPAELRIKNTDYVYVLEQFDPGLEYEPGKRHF
Assay Method Text: In vitro assay 1: C. elegans Slo-1a, action at a recombinant C. elegans CHO cell line (membrane potential measurement)
Measurement Context: CHO cells expressing C. elegans Slo-1a; voltage sensitive dye, FLIPR Tetra; negative decadic logarithm of EC50
Property: pE50

INSERT INTO measurements (structure, tested_target, test_value) VALUES
  ('O=C(N[C@H]1CCOc2ccccc21)c1cnc2c(-c3c(Cl)cccc3Cl)c(C(F)F)nn2c1C1CC1', 'C. elegans Slo-1a (Caenorhabditis elegans)', 8.5),
  ('CC(C)c1c(C(=O)N[C@H]2CCOc3ccccc32)cnc2c(-c3ccc(Cl)cc3Cl)c(C(F)F)nn12', 'C. elegans Slo-1a (Caenorhabditis elegans)', 8.1),
  ('Cc1nn2c(C(C)C)c(C(=O)N[C@H]3CCCc4ccccc43)cnc2c1-c1cnn(CC(F)(F)F)c1', 'C. elegans Slo-1a (Caenorhabditis elegans)', 7.9),
  ('COc1c(F)ccc(-c2c(C)nn3c(N(C)C)c(C(=O)N[C@H]4CCOc5ccccc54)cnc23)c1F', 'C. elegans Slo-1a (Caenorhabditis elegans)', 8.9),
  ('CCc1c(C(=O)N[C@H]2CCOc3ccccc32)cnc2c(-c3cccc(Cl)c3Cl)c(C)nn12', 'C. elegans Slo-1a (Caenorhabditis elegans)', 8.6),
  ('Cc1nn2c(N(C)CCN3CCCC3=O)c(C(=O)N[C@H]3CCOc4ccccc43)cnc2c1-c1cc(Cl)cc(Cl)c1', 'C. elegans Slo-1a (Caenorhabditis elegans)', 8.2),
  ('CC(C)c1c(C(=O)N[C@H]2CCCc3ccccc32)cnc2c(-c3ccc(Cl)cc3)cnn12', 'C. elegans Slo-1a (Caenorhabditis elegans)', 6.6);

###

Assay Method Text: log P by HPLC on reversed phase columns (Method L0; [a] acidic, [b] neutral range)
Measurement Context: HPLC on reversed phase columns (Method L0); last column of Table 1, column head not shown
Cut-off 4 on log P: below means 1, at or above means 0.

INSERT INTO results (compound, group) VALUES
  ('Cc1nn2c(N(C)CCS(C)(=O)=O)c(C(=O)N[C@H]3CCOc4ccccc43)cnc2c1-c1cc(Cl)cc(Cl)c1', 1),
  ('COc1c(C(=O)N[C@H]2CCc3ccccc32)cnc2c(-c3c(F)cccc3Cl)c(C)nn12', 1),
  ('CC(C)c1c(C(=O)N[C@H]2CCc3ccccc32)cnc2c(-c3cccc(OC(F)(F)F)c3)c(C3CC3)nn12', 0),
  ('COc1c(C(=O)N[C@H]2CCOc3ccccc32)cnc2c(-c3ccc(F)c(F)c3)c(C)nn12', 1),
  ('Cc1nn2c(C(C)C)c(C(=O)N[C@H]3CCOc4ccccc43)cnc2c1-c1cnn(CC(F)(F)F)c1', 1),
  ('Cc1nn2c(C3CC3)c(C(=O)N[C@H]3CCOc4ccccc43)cnc2c1-c1ccnc(N2CCOCC2)c1', 1),
  ('CC(C)c1c(C(=O)N[C@H]2CCc3ccccc32)cnc2c(-c3ccccc3Cl)c(C3CC3)nn12', 0),
  ('COc1c(C(=O)N[C@H]2CCOc3ccccc32)cnc2c(-c3cc(Cl)cc(Cl)c3)c(C)nn12', 1),
  ('COCc1cccc(-c2c(C3CC3)nn3c(C(C)C)c(C(=O)N[C@H]4CCc5ccccc54)cnc23)c1', 0),
  ('Cc1nn2c(NC3CC3)c(C(=O)N[C@H]3CCOc4ccccc43)cnc2c1-c1cccc(Cl)c1Cl', 0),
  ('Cc1nn2c(CN(C)C)c(C(=O)N[C@H]3CCc4ccccc43)cnc2c1-c1cccc(Cl)c1Cl', 1),
  ('Cc1nn2c(C3CC3)c(C(=O)N[C@H]3CCc4ccccc43)cnc2c1-c1cnn(CC(F)(F)F)c1', 1),
  ('Cc1nn2c(N(C)CC[S+](C)[O-])c(C(=O)NC3CCOc4ccccc43)cnc2c1-c1cc(Cl)cc(Cl)c1 (mixture of isomers)', 1),
  ('Cc1nn2c(NC3CC3)c(C(=O)N[C@H]3CCOc4ccccc43)cnc2c1-c1cc(F)cc(F)c1', 0),
  ('CC(C)c1c(C(=O)N[C@H]2CCc3ccccc32)cnc2c(-c3cccc(C(F)(F)F)c3)c(C3CC3)nn12', 0),
  ('Cc1nn2c(CN(C)C)c(C(=O)N[C@H]3CCOc4ccccc43)cnc2c1-c1cccc(Cl)c1Cl', 1),
  ('Cc1nn2c(C(C)C)c(C(=O)N[C@H]3CCc4ccccc43)cnc2c1-c1cnn(CCN2CCOCC2)c1', 1),
  ('Cc1nn2c(C(F)(F)F)c(C(=O)N[C@H]3CCc4ccccc43)cnc2c1-c1ccccc1Cl', 0),
  ('CC(C)c1c(C(=O)N[C@H]2CCc3ccccc32)cnc2c(-c3cccc(Cl)c3)c(C3CC3)nn12', 0),
  ('Cc1nn2c(NC3CC3)c(C(=O)N[C@H]3CCOc4ccccc43)cnc2c1-c1cc(Cl)cc(Cl)c1', 0),
  ('COc1c(C(=O)N[C@H]2CCOc3ccccc32)cnc2c(-c3cc(Cl)cc(Cl)c3F)c(C)nn12', 1),
  ('CSCCN(C)c1c(C(=O)N[C@H]2CCOc3ccccc32)cnc2c(-c3cccc(Cl)c3Cl)c(C)nn12', 0),
  ('Cc1nn2c(C(C)C)c(C(=O)N[C@H]3CCc4ccccc43)cnc2c1-n1cccn1', 1),
  ('COc1c(C(=O)N[C@H]2CCOc3ccccc32)cnc2c(-c3c(F)cccc3Cl)c(C)nn12', 0),
  ('Cc1nn2c(C(C)C)c(C(=O)N[C@H]3CCc4ccccc43)cnc2c1-c1cnn(CCN(C)C)c1', 1),
  ('Cc1nn2c(C3CC3)c(C(=O)N[C@H]3CCOc4ccccc43)cnc2c1-c1cnn(CC(F)(F)F)c1', 1),
  ('Cc1nn2c(C(F)(F)F)c(C(=O)N[C@H]3CCc4ccccc43)cnc2c1-c1c(F)cccc1F', 0),
  ('CC(C)c1c(C(=O)N[C@H]2CCc3ccccc32)cnc2c(-c3cccc(F)c3)c(C3CC3)nn12', 0);

###

Tested Target: C. elegans Slo-1a (Caenorhabditis elegans)
Assay Method Text: In vitro assay 1: C. elegans Slo-1a, action at a recombinant C. elegans CHO cell line (membrane potential measurement)
Measurement Context: CHO cells expressing C. elegans Slo-1a; voltage sensitive dye, FLIPR Tetra; negative decadic logarithm of EC50
Property: pE50

INSERT INTO results (molecule, property, test_value) VALUES
  ('Cc1ccc2c(c1)C(NC(=O)c1cnc3c(-c4c(F)cccc4Cl)c(C)nn3c1C(C)C)CCO2 (racemic)', 'pE50', 7.5),
  ('CC(C)c1c(C(=O)N[C@H]2CCCc3ccccc32)cnc2c(-c3ccccc3Cl)cnn12', 'pE50', 6.5),
  ('CCc1c(C(=O)N[C@H]2CCOc3ccccc32)cnc2c(-c3cccc(Cl)c3)c(C)nn12', 'pE50', 8.2),
  ('COc1c(Cl)ccc(-c2c(C)nn3c(C(C)C)c(C(=O)N[C@H]4CCOc5ccccc54)cnc23)c1F', 'pE50', 9.1),
  ('Cc1nn2c(C(C)C)c(C(=O)N[C@H]3CCOc4ccccc43)cnc2c1-c1cccc(OC(F)(F)F)c1F', 'pE50', 9.1),
  ('CC(C)c1c(C(=O)N[C@H]2CCc3ccccc32)cnc2c(-c3ccc(Cl)cc3)cnn12', 'pE50', 7.2),
  ('Cc1nn2c(C3CC3)c(C(=O)N[C@H]3CCOc4ccccc43)cnc2c1-c1cccc(Cl)c1F', 'pE50', 8.9),
  ('Cc1nn2c(C3CC3)c(C(=O)N[C@H]3CCOc4ccccc43)cnc2c1-c1cc(C(F)(F)F)ccc1Cl', 'pE50', 8.9),
  ('Cc1nn2c(N3CCOCC3)c(C(=O)N[C@H]3CCOc4ccccc43)cnc2c1-c1ccc(F)c(N(C)C)c1F', 'pE50', 8.6),
  ('Cc1ccc2c(c1)[C@@H](NC(=O)c1cnc3c(-c4c(F)cccc4F)c(C)nn3c1C(C)C)CCC2', 'pE50', 7.3),
  ('CCc1c(C(=O)N[C@H]2CCOc3ccccc32)cnc2c(-c3c(F)ccc(Cl)c3F)c(C)nn12', 'pE50', 8.8),
  ('Cc1nn2c(C(C)C)c(C(=O)N[C@H]3CCc4ccccc43)cnc2c1-c1cccc(C[S+](C)[O-])c1 (stereo partly drawn)', 'pE50', 6),
  ('CC(C)c1c(C(=O)N[C@H]2CCOc3ccccc32)cnc2c(-c3cc(Cl)c(F)c(Cl)c3)c(C(F)F)nn12', 'pE50', 8.3),
  ('Cc1nn2c(C)c(C(=O)N[C@H]3CCc4ccccc43)cnc2c1-c1cccc(C(F)(F)F)c1', 'pE50', 6.7),
  ('Cc1nn2c(C3CC3)c(C(=O)N[C@H]3CCOc4ccccc43)cnc2c1-c1cc(C(F)(F)F)ccc1F', 'pE50', 8.9);
